The values you see were collected from patent US11072632B2.

target: 17β-HSD3 (Homo sapiens, UniProt P37058); construct: expressed in transfected cells; host or cells: HEK-293 (homogenate); experiment: Inhibition of 17β-HSD3 in intact HEK-293 cells; assay type: cell-based; settings: HEK293, 1 h, Table 2 (17β-HSD3); 1 μM; read-out: Intact cells (%) (1 μM)
Sequence (P37058 whole entry): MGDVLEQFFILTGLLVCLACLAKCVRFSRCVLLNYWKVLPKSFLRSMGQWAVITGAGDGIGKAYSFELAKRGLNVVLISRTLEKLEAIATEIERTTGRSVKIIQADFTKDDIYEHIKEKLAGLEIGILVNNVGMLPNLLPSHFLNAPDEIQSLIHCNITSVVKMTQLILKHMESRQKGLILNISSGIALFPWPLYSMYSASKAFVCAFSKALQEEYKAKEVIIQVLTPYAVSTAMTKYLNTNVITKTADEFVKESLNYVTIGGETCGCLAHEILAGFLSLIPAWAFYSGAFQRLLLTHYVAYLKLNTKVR
Classify by measured inhibition at 1 µM: yes if it is equal to or exceeds 90%, no if it is smaller.

line_notation=CCN(CC)C[C@@]1(O)CC[C@@]2(C)[C@@H](CC[C@@H]3[C@@H]2CC[C@]2(C)C(=O)CC[C@@H]32)C1 test_target="17β-HSD3 (Homo sapiens, UniProt P37058)" category=no
line_notation=C[C@]12CC[C@](O)(CN3CCC(N4CCCCC4)CC3)C[C@@H]1CC[C@@H]1[C@@H]2CC[C@]2(C)C(=O)CC[C@@H]12 test_target="17β-HSD3 (Homo sapiens, UniProt P37058)" category=no
line_notation=CCN(Cc1ccccc1)C[C@@]1(O)CC[C@@]2(C)[C@@H](CC[C@@H]3[C@@H]2CC[C@]2(C)C(=O)CC[C@@H]32)C1 test_target="17β-HSD3 (Homo sapiens, UniProt P37058)" category=yes
